- Test Target: Group 3 secretory phospholipase A2 (Homo sapiens)
- Protocol Details: human group III sPLA2 inhibitors, primary screen, biochemical, QFRET, BODIPY PC-A2 liposome substrate (AID 743126);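 note: 0% = median of test compound wells and 100% = no enzyme DMSO wells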
- Test Parameters: QFRET BODIPY PC-A2 liposome hydrolysis, fluorescence; at 12.2 µM; stronger effect = higher value
The campaign covered roughly 370,000 compounds. About 2,100 (0.57%) were called active. What follows is part of a selection rich in actives, with near analogues and random picks from the rest.
Entries and their inhibition values follow.
Field format: number, assumed %, no unit text.

Sample answers from the record:
CCOc1ccc(N2CC(C(=O)NCc3ccccn3)CC2=O)cc1 (stereo unspecified); 0.93
NC[C@H](Cc1ccccc1)NCCc1cc(C(F)(F)F)cc(C(F)(F)F)c1; 21.8
Cc1cc(NS(=O)(=O)c2ccc(NC(=O)CSc3nnc(SCc4ccc(F)cc4)s3)cc2)nc(C)n1; -29.3

// query Answer briefly: inhibition recorded on Group 3 secretory phospholipase A2 (Homo sapiens) for C[C@@H]1CN([C@@H](C)CO)C(=O)c2cccc(NC(=O)Nc3cccc4ccccc34)c2O[C@H]1CN(C)S(=O)(=O)c1ccccc1F
// result -21.9

// query Report measured inhibition on Group 3 secretory phospholipase A2 (Homo sapiens); entry: CCOc1ccc(-c2n[nH]c(=S)n2/N=C/c2cc3c(cc2[N+](=O)[O-])OCO3)cc1
// result 1.67

// query State recorded inhibition with Group 3 secretory phospholipase A2 (Homo sapiens), entry COc1ccc(N2CCN(CCNS(=O)(=O)c3ccc([N+](=O)[O-])cc3)CC2)cc1 , no comment.
// result -4.09

// query Give inhibition; test system Group 3 secretory phospholipase A2 (Homo sapiens); molecule Cc1nc(CNc2ncnc3ccc(-c4ccc5c(c4)OCO5)cc23)cs1
// result -8.39

// query Quote Group 3 secretory phospholipase A2 (Homo sapiens) inhibition for entry O=C(Nc1cccc(F)c1)c1cc(-c2ccco2)nc2ccccc12 .
// result 23.6

// query Write down the reported inhibition (system: Group 3 secretory phospholipase A2 (Homo sapiens)) of Cc1cc(=O)[nH]c(SCC(=O)Nc2ccc(Cl)cc2C)n1
// result 1.76

// query GET inhibition | system: Group 3 secretory phospholipase A2 (Homo sapiens) | item: COC(=O)[C@]12C[C@H](CC(=O)N3CCN(C(=O)C4CC4)CC3)C(=O)N(CCC3=CCCCC3)C1=C[C@H](C(C)C)O[C@@H]2C1CC1
// result 4.41

// query Return reported inhibition for target or system Group 3 secretory phospholipase A2 (Homo sapiens), item CCCCn1c(N)c(N(CCOC)C(=O)c2sc3ccccc3c2Cl)c(=O)[nH]c1=O .
// result 5.32

// query // fetch inhibition; item: O=[N+]([O-])c1cc([N+](=O)[O-])c2cccnc2c1O ; system: Group 3 secretory phospholipase A2 (Homo sapiens)
// result 2.18

// query Give inhibition for O=C(Nc1nc2ccc(Cl)cc2s1)c1cc(-c2ccc(Cl)cc2)nc2ccccc12 tested on Group 3 secretory phospholipase A2 (Homo sapiens).
// result 13.3

Origin of the recorded values: PubChem BioAssay AID743126
